- Tested on: human FGFR2b (Homo sapiens, UniProt P21802)
- Sequence (P21802 22-822 isoform P21802-3 limits assumed): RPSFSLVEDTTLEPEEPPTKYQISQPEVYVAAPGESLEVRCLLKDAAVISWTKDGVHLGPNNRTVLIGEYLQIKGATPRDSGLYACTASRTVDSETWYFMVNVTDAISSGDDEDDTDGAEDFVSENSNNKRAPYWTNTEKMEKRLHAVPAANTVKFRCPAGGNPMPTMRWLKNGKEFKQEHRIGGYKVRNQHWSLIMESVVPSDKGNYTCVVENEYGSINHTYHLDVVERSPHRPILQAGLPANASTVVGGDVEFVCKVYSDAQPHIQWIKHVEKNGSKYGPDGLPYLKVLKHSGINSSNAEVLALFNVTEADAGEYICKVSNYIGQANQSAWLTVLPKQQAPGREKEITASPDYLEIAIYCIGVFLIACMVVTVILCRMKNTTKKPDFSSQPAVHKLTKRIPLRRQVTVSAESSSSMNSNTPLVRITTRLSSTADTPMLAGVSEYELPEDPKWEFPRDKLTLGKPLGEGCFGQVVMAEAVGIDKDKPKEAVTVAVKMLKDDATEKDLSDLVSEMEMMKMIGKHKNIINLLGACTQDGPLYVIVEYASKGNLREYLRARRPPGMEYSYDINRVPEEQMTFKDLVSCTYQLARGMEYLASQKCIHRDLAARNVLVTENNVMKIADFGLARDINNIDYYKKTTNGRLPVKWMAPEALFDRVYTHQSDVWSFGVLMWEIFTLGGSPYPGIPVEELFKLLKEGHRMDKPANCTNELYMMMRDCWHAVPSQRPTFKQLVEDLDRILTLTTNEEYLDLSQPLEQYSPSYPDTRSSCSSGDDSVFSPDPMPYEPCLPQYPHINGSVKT
- Experiment notes: FACS binding to native FGFR2b on Expi293 cells, human FGFR2b (Example 10)
- Setup conditions: Expi293 cells overexpressing human FGFR2b
Listed here: items and their measured EC50.
Dear colleague, please return just the value in nM, with no unit written.

[[record]]
molecule = "BGAm1823: parental murine anti-FGFR2b antibody; VH SEQ ID NO: 28, VL SEQ ID NO: 30 (antibody, V domains shown, Synthetic: VH AA; Synthetic: VL AA) VH: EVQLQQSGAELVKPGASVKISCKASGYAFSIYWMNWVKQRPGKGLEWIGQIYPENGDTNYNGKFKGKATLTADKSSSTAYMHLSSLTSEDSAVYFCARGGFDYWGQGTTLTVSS VL: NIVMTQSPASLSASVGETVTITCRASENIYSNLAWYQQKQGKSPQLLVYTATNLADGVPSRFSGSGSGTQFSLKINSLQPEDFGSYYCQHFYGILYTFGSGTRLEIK"
unit_info = "nM"
obs_value = 2.12

[[record]]
molecule = "BGAh9239: humanized anti-FGFR2b IgG1 antibody from murine BGAm1823; VH SEQ ID NO: 9, VL SEQ ID NO: 10 (antibody, V domains shown, Synthetic: VH AA; Synthetic: VL AA) VH: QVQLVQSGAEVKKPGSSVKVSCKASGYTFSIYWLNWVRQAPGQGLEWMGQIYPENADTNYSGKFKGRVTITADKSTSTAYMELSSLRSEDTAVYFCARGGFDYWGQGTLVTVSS VL: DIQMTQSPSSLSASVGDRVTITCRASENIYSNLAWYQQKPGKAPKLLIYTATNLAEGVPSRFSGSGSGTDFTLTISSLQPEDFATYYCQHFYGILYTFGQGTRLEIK"
unit_info = "nM"
obs_value = 2.4


Now for another entry.
Suppose we examine the molecule BGAh9179: humanized anti-FGFR2b IgG1 antibody from murine BGAm1371; VH SEQ ID NO: 21, VL SEQ ID NO: 22 (antibody, V domains shown, Synthetic: VH AA; Synthetic: VL AA) VH: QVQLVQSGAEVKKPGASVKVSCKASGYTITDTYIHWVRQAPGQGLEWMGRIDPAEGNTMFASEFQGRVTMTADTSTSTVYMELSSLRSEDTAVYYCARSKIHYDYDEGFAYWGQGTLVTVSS VL: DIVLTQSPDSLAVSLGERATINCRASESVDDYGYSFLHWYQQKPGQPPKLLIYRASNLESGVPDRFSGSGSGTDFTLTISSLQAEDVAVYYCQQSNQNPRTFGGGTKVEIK ; what EC50 value has been reported?
3.29
